The reported measurements were obtained from patent US20160185837A1.

tgt: human GLP-1 receptor (human, UniProt P43220 24-463)
assay_protocol: cell-based or functional assay
# 1.0 = cAMP EC50 below 0.2 nM (exclusive); 0.0 = cAMP EC50 at/above 0.2 nM

Below, 5 binders whose answers are already recorded.
binder	class_name
IP024 (Fc fusion) YSEGTFTSDYSKLLEEEAVRLFIEWLLAGAAAGGSGSTASSGSGSATGGGGAATHTCPPCPAPEF	1.0
IP213 (Fc fusion) YSEGTFTSDYSKLLEEEAVRLFIEWLLAGGAAAGGSGSTASSGSGSATGGGGAATHTCPPCPAPEF	1.0
IP215 (Fc fusion) HGEGTFTSDVSSYMESQLVDEFIAWLVKGAAAGGSGSTASSGSGSATGGGGAATHTCPPCPAPEF	1.0
IP317 (Fc fusion) YSEGTFTSDVSSYLEKQAIDEFIAWLLKGGAAAGGSGSTASSGSGSATGGGGAATHTCPPC	1.0
IP371 (Fc fusion) YSEGMHTSDLSKLLEEEAVRLFIEWLLAGGGGGGGSGGGGSGGGGSGGGGSACPPC	0.0

Say whether its cAMP EC50 is strictly beneath 0.2 nM. Entry: IP326 (Fc fusion) YSEGTFTSDYSKLLEEEAVRLFIEWLLAGGGGGGGSGGGGSGGGGSGGGGSGGGGSA 0.0

Now try IP256 (Fc fusion) YSEGTFTSDYSKLLEEEAVRLFIEWLLAGGHNITQGGGGGSGGGGSGGGGSGGGGSATHTCPPCPAPEF . 0.0

Try this binder too: IP383 (Fc fusion) YSEGTFTSLYRILLEEEAVRLFIEWLLAGGGGGGSGGGGSGGGGSGGGGSATHTCPPC 1.0

Now give it for IP264 (Fc fusion) YSEGTFTSDYSKLLEEEAVRLFIEWLVKGKGGGGGSGGGGSGGGGSGGGGSATHTCPPCPAPEF too. 1.0

Now this one: IP294 (Fc fusion) YSEGTFTSDYSKLLEEEAVRLFICWLVCGPGGGGGGGGGGGGGGGGGGGGACPPC 0.0

Another binder to check: IP327 (Fc fusion) YSEGTFTSDYSKLLEEEAVRLFIEWLLAGGGGGGGSGGGGSGGGGSGGGGSGGGGSGGGGSA 0.0
